Target: T1, human IL-1α (human, UniProt P01583 113-271)
T1 construct: also called hIL-1α; rhIL-1 alpha
T1 sequence (looked up): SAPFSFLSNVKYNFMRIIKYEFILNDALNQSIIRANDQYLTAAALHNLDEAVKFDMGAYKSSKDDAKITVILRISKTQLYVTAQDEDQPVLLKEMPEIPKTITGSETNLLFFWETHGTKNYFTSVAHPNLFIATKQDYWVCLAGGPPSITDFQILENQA
Assay: method not given
pKd: −log10 of the molar value.
readout-kind: pKd

[I] ABT1-95 (other, dAb, Vκ, to IL-1α; also called dAb ABT1-95) VL: DIQMTQSPSSLSASVGDRVTITCRASQPIHGNLRWYQQKPGKAPKLLIYNISNLQSGVPSRFSGSGSGTDFTLTISSLQPEDFATYYCQQGYRWPVTFGQGTKVEIKR
[II] ABT1-95-8 (other, dAb, Vκ, to IL-1α) VL: DIQMTQSPSSLSASVGDRVTITCRASQPIQGNLRWYQQKPGKAPKLLIYSSSYLERGVPSRFSGSGSGTDFTLTISSLQPEDFATYHCQQGYRWPVTFGQGTKVEIKR
[III] ABT1-95-2 (other, dAb, Vκ, to IL-1α) VL: DIQMTQSPSSLSASVGDRVTITCRASQPIHGNLRWYQQKPGKAPKLLIYSSSYLQSGVPSRFSGSGSGTDFTLTISSLQPEDFATYYCQQGYRWPVTFGQGTKVEIK
## Input Returns the items ordered by pKd, from maximum to minimum. Write the labels out in the order the request specifies.
## Output II, III, I

[a] ABT1-95-1 (other) DIQMTQSPSSLSASVGDRVTITCRASQPIHGNLRWYQQKPGKAPKLLIYNISNLQSGVPSRFSGSGSGTDFTLTISSLQPEDFATYHCQQGYRWPVTFGQGTKVEIKR
[b] ABT1-95-4 (other, dAb, Vκ, to IL-1α) VL: DIQMTQSPSSLSASVGDRVTITCRASQPIVRNLRWYQQKPGKAPKLLIYSSSYLQSGVPSRFSGSGSGTDFTLTISSLQPEDFATYHCQQGYRWPVTFGQGTKVEIKR
## Input Hello, I am sorting some records. Could you say if a or b has the smaller pKd value? Lab note: record the label of whichever item you select.
## Output a
(a: 7.40, b: 9.05)
